All values here come from patent US20210230570.

Some proteins, each annotated with its measured kcat.
- Tested Target: Factor X (FX), P00742
- Sequence (P00742 whole entry, looked up): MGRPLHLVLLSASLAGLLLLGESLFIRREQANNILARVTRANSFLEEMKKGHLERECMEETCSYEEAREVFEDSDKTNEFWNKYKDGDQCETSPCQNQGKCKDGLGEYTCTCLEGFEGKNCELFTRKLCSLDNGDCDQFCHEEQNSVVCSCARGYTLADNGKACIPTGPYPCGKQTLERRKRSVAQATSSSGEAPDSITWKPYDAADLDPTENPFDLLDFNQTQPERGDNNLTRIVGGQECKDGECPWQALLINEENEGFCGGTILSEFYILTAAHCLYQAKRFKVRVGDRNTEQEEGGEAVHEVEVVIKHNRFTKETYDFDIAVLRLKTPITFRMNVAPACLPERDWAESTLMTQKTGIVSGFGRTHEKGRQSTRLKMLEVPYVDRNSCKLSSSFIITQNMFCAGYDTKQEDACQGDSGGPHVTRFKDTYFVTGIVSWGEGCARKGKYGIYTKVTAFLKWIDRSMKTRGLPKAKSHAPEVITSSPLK
Reply with a number, then the unit it belongs to.

Consider the reported kcat for these proteins:
* FIXa-Y155F/K247N/N249S/R318Y/T343R/E410N (protein) chain 1: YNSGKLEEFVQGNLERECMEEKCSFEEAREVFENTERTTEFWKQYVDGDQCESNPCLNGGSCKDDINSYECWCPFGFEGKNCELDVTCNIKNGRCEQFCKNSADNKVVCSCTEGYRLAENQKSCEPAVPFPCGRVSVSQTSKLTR chain 2: VVGGEDAKPGQFPWQVVLNGKVDAFCGGSIVNEKWIVTAAHCVETGVKITVVAGEHNIEETEHTEQNRSVIRIIPHHNYNAAINKYNHDIALLELDEPLVLNSYVTPICIADKEYTNIFLKFGSGYVSGWGRVFHKGYSALVLQYLRVPLVDRATCLRSTKFRIYNNMFCAGFHEGGRDSCQGDSGGPHVTEVEGTSFLTGIISWGEECAMKGKYGIYTKVSRYVNWIKNKTKLT | 8.1 s⁻¹
* FIXa-R318Y/R338E/T343R/R403E/E410S (protein) chain 1: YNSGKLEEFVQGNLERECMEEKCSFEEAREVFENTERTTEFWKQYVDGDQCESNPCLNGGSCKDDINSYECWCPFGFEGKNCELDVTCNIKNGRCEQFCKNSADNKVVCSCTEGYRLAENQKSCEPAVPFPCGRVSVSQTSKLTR chain 2: VVGGEDAKPGQFPWQVVLNGKVDAFCGGSIVNEKWIVTAAHCVETGVKITVVAGEHNIEETEHTEQKRNVIRIIPHHNYNAAINKYNHDIALLELDEPLVLNSYVTPICIADKEYTNIFLKFGSGYVSGWGRVFHKGYSALVLQYLRVPLVDRATCLESTKFRIYNNMFCAGFHEGGRDSCQGDSGGPHVTEVEGTSFLTGIISWGEECAMKGKYGIYTKVSEYVNWIKSKTKLT | 7.6 s⁻¹
* FIXa-Y155F/K247N/N249S/R338E/E410N (protein) chain 1: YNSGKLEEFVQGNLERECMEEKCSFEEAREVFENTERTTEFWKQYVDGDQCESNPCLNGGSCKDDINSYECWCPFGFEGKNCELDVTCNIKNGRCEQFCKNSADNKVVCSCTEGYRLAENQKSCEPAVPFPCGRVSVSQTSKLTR chain 2: VVGGEDAKPGQFPWQVVLNGKVDAFCGGSIVNEKWIVTAAHCVETGVKITVVAGEHNIEETEHTEQNRSVIRIIPHHNYNAAINKYNHDIALLELDEPLVLNSYVTPICIADKEYTNIFLKFGSGYVSGWGRVFHKGRSALVLQYLRVPLVDRATCLESTKFTIYNNMFCAGFHEGGRDSCQGDSGGPHVTEVEGTSFLTGIISWGEECAMKGKYGIYTKVSRYVNWIKNKTKLT | 7.3 s⁻¹
* FIXa-Y155F/K247N/N249S/T343R/R403E (protein) chain 1: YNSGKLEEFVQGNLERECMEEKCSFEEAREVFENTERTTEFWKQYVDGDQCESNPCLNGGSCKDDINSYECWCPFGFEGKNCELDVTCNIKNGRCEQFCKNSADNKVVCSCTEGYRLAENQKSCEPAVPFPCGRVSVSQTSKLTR chain 2: VVGGEDAKPGQFPWQVVLNGKVDAFCGGSIVNEKWIVTAAHCVETGVKITVVAGEHNIEETEHTEQNRSVIRIIPHHNYNAAINKYNHDIALLELDEPLVLNSYVTPICIADKEYTNIFLKFGSGYVSGWGRVFHKGRSALVLQYLRVPLVDRATCLRSTKFRIYNNMFCAGFHEGGRDSCQGDSGGPHVTEVEGTSFLTGIISWGEECAMKGKYGIYTKVSEYVNWIKEKTKLT | 4.7 s⁻¹
* FIXa-Y155F/R338E/T343R/R403E (protein) chain 1: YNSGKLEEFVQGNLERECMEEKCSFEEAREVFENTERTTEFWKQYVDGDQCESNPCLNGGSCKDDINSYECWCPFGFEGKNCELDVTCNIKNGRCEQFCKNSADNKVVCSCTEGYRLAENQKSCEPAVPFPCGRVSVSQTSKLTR chain 2: VVGGEDAKPGQFPWQVVLNGKVDAFCGGSIVNEKWIVTAAHCVETGVKITVVAGEHNIEETEHTEQKRNVIRIIPHHNYNAAINKYNHDIALLELDEPLVLNSYVTPICIADKEYTNIFLKFGSGYVSGWGRVFHKGRSALVLQYLRVPLVDRATCLESTKFRIYNNMFCAGFHEGGRDSCQGDSGGPHVTEVEGTSFLTGIISWGEECAMKGKYGIYTKVSEYVNWIKEKTKLT | 5.2 s⁻¹
* FIXa-Y155F/K247N/N249S/R318Y/R338E/T343R (protein) chain 1: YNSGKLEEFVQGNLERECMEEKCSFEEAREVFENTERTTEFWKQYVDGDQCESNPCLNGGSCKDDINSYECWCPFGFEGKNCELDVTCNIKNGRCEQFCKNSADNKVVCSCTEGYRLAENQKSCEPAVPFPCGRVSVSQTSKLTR chain 2: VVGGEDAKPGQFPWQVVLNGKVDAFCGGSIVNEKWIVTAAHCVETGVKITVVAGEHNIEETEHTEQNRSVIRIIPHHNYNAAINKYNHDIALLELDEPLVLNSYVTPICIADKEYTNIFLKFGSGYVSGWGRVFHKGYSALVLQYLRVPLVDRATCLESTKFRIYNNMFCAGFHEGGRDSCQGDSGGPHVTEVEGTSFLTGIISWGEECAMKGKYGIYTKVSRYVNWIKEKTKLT | 8.5 s⁻¹

[in] Recorded kcat for FIXa-K247N/N249S/R338E/T343R/R403E/E410N (protein) chain 1: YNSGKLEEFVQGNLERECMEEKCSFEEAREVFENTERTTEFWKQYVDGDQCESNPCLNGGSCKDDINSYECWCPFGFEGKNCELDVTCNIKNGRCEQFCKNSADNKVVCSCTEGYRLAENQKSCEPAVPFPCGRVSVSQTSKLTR chain 2: VVGGEDAKPGQFPWQVVLNGKVDAFCGGSIVNEKWIVTAAHCVETGVKITVVAGEHNIEETEHTEQNRSVIRIIPHHNYNAAINKYNHDIALLELDEPLVLNSYVTPICIADKEYTNIFLKFGSGYVSGWGRVFHKGRSALVLQYLRVPLVDRATCLESTKFRIYNNMFCAGFHEGGRDSCQGDSGGPHVTEVEGTSFLTGIISWGEECAMKGKYGIYTKVSEYVNWIKNKTKLT , please?
[out] 10.8 s⁻¹
